Recorded values, source ChEMBL document CHEMBL4342519.

- Target Under Test: Gastrin/cholecystokinin type B receptor (Homo sapiens) (UniProt P32239)
- Experiment Summary: Binding affinity to CCK2R (unknown origin) expressed in human A431 cells assessed as receptor-mediated drug internalization at 5 kBq incubated 4 hrs using 177Lu labeled compound by gamma counting method relative to control
- Type: cell-based
Active and inactive are the calls of the source. The rule behind the calls is not given here. *1 amine or outer side, *2 acyl side, *3 side chain or, on linkers, in order; H or OH if unused. Where a SMILES comes first, the peptide text is derived from it. [ ]: non-standard residue; d: D form. The star is where a group is joined. X2 = CCCC[C@@H](C(=O)[*:2])n1cc([C@H](Cc2c[nH]c3ccccc23)N[*:1])nn1; X4 = C[C@H](N[*:1])c1cn([C@@H](Cc2ccc(O)cc2)C(=O)[*:2])nn1; DOTA = O=C(O)CN1CCN(CC(=O)O)CCN(CC(=O)*)CCN(CC(=O)O)CC1; X5 = C[C@@H](C(=O)[*:2])n1cc([C@@H](CCC(=O)O)N[*:1])nn1; Nle = CCCC[C@H](N)C(=O)O
Readout Name: Drug uptake

CCCC[C@H](NC(=O)[C@H](Cc1c[nH]c2ccccc12)NC(=O)CNC(=O)[C@H](Cc1ccc(O)cc1)n1cc([C@H](C)NC(=O)[C@@H](CCC(=O)O)NC(=O)CN2CCN(CC(=O)O)CCN(CC(=O)O)CCN(CC(=O)O)CC2)nn1)C(=O)N[C@@H](CC(=O)O)C(=O)N[C@@H](Cc1ccccc1)C(N)=O ({DOTA}-[dE][X4]GW[Nle]DF-NH2) = Active
CCCC[C@H](NC(=O)[C@H](Cc1c[nH]c2ccccc12)NC(=O)CNC(=O)[C@H](Cc1ccc(O)cc1)NC(=O)[C@H](C)n1cc([C@@H](CCC(=O)O)NC(=O)CN2CCN(CC(=O)O)CCN(CC(=O)O)CCN(CC(=O)O)CC2)nn1)C(=O)N[C@@H](CC(=O)O)C(=O)N[C@@H](Cc1ccccc1)C(N)=O ({DOTA}-[X5]YGW[Nle]DF-NH2) = Active
CCCC[C@@H](C(=O)N[C@@H](CC(=O)O)C(=O)N[C@@H](Cc1ccccc1)C(N)=O)n1cc([C@H](Cc2c[nH]c3ccccc23)NC(=O)CNC(=O)[C@H](Cc2ccc(O)cc2)NC(=O)[C@H](C)NC(=O)[C@@H](CCC(=O)O)NC(=O)CN2CCN(CC(=O)O)CCN(CC(=O)O)CCN(CC(=O)O)CC2)nn1 ({DOTA}-[dE]AYG[X2]DF-NH2) = Active

----------
- Target Under Test: Gastrin/cholecystokinin type B receptor (Homo sapiens)
- Sequence (whole entry): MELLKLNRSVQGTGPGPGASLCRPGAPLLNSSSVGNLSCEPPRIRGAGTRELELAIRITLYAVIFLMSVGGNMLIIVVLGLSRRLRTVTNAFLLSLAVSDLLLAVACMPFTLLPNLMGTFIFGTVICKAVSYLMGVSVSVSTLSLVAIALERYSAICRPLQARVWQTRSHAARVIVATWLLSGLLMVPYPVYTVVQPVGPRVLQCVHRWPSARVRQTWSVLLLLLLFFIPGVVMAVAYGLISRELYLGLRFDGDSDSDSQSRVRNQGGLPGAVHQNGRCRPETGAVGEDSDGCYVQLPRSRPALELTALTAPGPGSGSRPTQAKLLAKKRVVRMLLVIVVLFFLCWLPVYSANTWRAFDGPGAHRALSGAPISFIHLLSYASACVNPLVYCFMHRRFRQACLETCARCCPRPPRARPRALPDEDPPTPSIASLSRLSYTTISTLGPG
- Experiment Summary: Binding affinity to CCK2R (unknown origin) expressed in human A431 cells assessed as receptor-mediated drug internalization at 5 kBq incubated up to 240 mins using 177Lu labeled compound by gamma counting method relative to control
- Type: cell-based
*1 amine or outer side, *2 acyl side, *3 side chain or, on linkers, in order; H or OH if unused. Where a SMILES comes first, the peptide text is derived from it. [ ]: non-standard residue; d: D form. The star is where a group is joined. X2 = CCCC[C@@H](C(=O)[*:2])n1cc([C@H](Cc2c[nH]c3ccccc23)N[*:1])nn1; DOTA = O=C(O)CN1CCN(CC(=O)O)CCN(CC(=O)*)CCN(CC(=O)O)CC1; X3 = O=C([C@H](Cc1c[nH]c2ccccc12)n1cc(CN[*:1])nn1)[*:2]; Nle = CCCC[C@H](N)C(=O)O
Readout Name: Drug uptake (%)
The reply should contain only the number, in %.

Consider the worked cases shown below.
CCCC[C@@H](C(=O)N[C@@H](CC(=O)O)C(=O)N[C@@H](Cc1ccccc1)C(N)=O)n1cc([C@H](Cc2c[nH]c3ccccc23)NC(=O)CNC(=O)[C@H](Cc2ccc(O)cc2)NC(=O)[C@H](C)NC(=O)[C@@H](CCC(=O)O)NC(=O)CN2CCN(CC(=O)O)CCN(CC(=O)O)CCN(CC(=O)O)CC2)nn1 ({DOTA}-[dE]AYG[X2]DF-NH2) = 33.1
CCCC[C@H](NC(=O)[C@H](Cc1c[nH]c2ccccc12)NC(=O)CCNC(=O)[C@H](Cc1ccc(O)cc1)NC(=O)[C@H](C)NC(=O)[C@@H](CCC(=O)O)NC(=O)CN1CCN(CC(=O)O)CCN(CC(=O)O)CCN(CC(=O)O)CC1)C(=O)N[C@@H](CC(=O)O)C(=O)N[C@@H](Cc1ccccc1)C(N)=O = 44.5

Kindly review the next molecule as well.
Sure, the documented Drug uptake for CCCC[C@H](NC(=O)[C@H](Cc1c[nH]c2ccccc12)n1cc(CNC(=O)[C@H](Cc2ccc(O)cc2)NC(=O)[C@H](C)NC(=O)[C@@H](CCC(=O)O)NC(=O)CN2CCN(CC(=O)O)CCN(CC(=O)O)CCN(CC(=O)O)CC2)nn1)C(=O)N[C@@H](CC(=O)O)C(=O)N[C@@H](Cc1ccccc1)C(N)=O ({DOTA}-[dE]AY[X3][Nle]DF-NH2) is 41.7
